Molecular target: T1, native Ovr110 protein on tumor cells (ZR-75-1, SKBR3, RL95.2, OVCAR3) (human, UniProt Q7Z7D3 25-282)
T1 construct: whole, on cells; Endogenous protein of Ovr110-positive tumor cell lines; also called B7-H4; B7x
T1 sequence (looked up): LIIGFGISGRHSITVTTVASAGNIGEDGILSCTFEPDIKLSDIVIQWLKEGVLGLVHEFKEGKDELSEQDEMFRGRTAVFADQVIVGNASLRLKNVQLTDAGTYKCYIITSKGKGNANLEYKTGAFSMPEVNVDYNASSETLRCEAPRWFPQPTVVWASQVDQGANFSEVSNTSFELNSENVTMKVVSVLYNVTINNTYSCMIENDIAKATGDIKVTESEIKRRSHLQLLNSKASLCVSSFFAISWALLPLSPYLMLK
Experiment: flow cytometry; purified MAb; SKBR3 cells

binder: Ovr110.Q11 (antibody, V domains shown, Mouse hybridoma MAb; also called Q11.12.3; Ovr110.Q11.12.3) VH: DVQLQESGPGLVKPSQSLSLTCSVTGYSITSGYFWSWIRQFPGNKLEWMGFISYDGTNSYNPSLKNRISITRDTSKNQFFLRLNSVTKEDTATYYCARKLLWLRFDYWGQGTTLTVSS VL: ENVLTQSPAIMSASPGEKVTMTCSASSSVSYMHWYQQKSSTSPKLWIYDTSKLASGVPGRFSGSGSGNSYSLTISSMEAEDVATYYCFQGSGYPFTFGSGTKLEIKR
unit: %
% Cells Positive: 98.4
